# Tested on: MS2 coat protein
# Experiment summary: apparent KD of MS2 coat protein; higher = weaker reporter binding
# Condition context: Eterna round: R107; input ligand: arginine 13.2 mM
Hi, to clarify the labels: YES covers apparent KD of MS2 coat protein from 20 nM upward, NO covers anything below 20 nM.

Use these answered entries as a reference point.
GCACGACAUGAGGAUCACCCAUGUGCAGAUACCAGUAGGAUAUCCUACCCUUGGCAGCUGAGUAGAUCUGGAGGACUAUAGGUAA [Same State Theophylline A GF9] = NO
UAUCCACAUGAGGAUCACCCAUGUUAGGAAGGAGCGGUGAAUGAACCAGGUAGGUCGCCUAGCUGAGGACCGUCGAUGGAUUCGU [Exclusion - Arginine A (Freestyle 16)] = NO
AGACUGUCUUCGGACAGUCCGGACAGCCCGCGAGGACCGGUACGGCCGCCACUCGCGUGAGGAUCACCCAUGCGAGGCUGUCCGA [Omei Tryp A Exc A v1] = YES
AAAUAAUAUUAAUUAAUUAUAUUAUUCUGACGAGGACCGGUACGGCCGCCACUCGGCCCAUGGUACAUGAGGAUCACCCAUGUCU [Same State - Tryptophan A] = NO
AAAGAACAUGAGGAUCACCCAUGUACCGAAGGAGCGGCGAAGAAGCCAGGUAGGUCGCGGAACAUGAAGCGAUUAAGAAUUAAUU = YES

Lab note: next sequence to report on.
Input: For this sequence, is measured apparent KD of MS2 coat protein 20 nM or higher? ACAUGAGGAUCACCCAUGUUAAACAGGGUGCGAGGACCGGUACGGCCGCCACUCGGACAUUAUUACGAGUGAAUGGCAACGAUGU [#12 Exclusion Tryptophan A]
Output: YES
